Where do these numbers come from? They come from ChEMBL document CHEMBL3414508.

- System: Staphylococcus epidermidis
- Run Description: Antibacterial activity against Staphylococcus epidermidis expressing mecA by broth microdilution method
- Format: functional
Result Type: MIC (µg/mL)

COC(=O)[C@H]1NC(=O)[C@H]2NC(=O)[C@H](NC(=O)[C@@H]3NC(=O)[C@H]4NC(=O)[C@@H](Cc5ccc(c(Cl)c5)Oc5cc3cc(c5O)Oc3ccc(cc3Cl)[C@H]2O[C@@H]2O[C@H](CO)[C@@H](O)[C@H](O)[C@H]2NC(C)=O)NC(=O)[C@H](Nc2c(NCc3ccc(-c5ccccc5)cc3)c(=O)c2=O)c2ccc(O)c(c2)Oc2cc(O)cc4c2)c2ccc(O)c(c2)-c2c(O)cc(O)cc21; 0.5
COc1c(N[C@H]2C(=O)N[C@@H]3Cc4ccc(c(Cl)c4)Oc4cc5cc(c4O)Oc4ccc(cc4Cl)[C@@H](O)[C@@H]4NC(=O)[C@H](NC(=O)[C@@H]5NC(=O)[C@@H](NC3=O)c3cc(O)cc(c3)Oc3cc2ccc3O)c2ccc(O)c(c2)-c2c(O)cc(O)cc2[C@@H](C(=O)O)NC4=O)c(=O)c1=O; 2
O=C1N[C@H]2C(=O)N[C@H]3C(=O)N[C@H](C(=O)N[C@H](C(=O)O)c4cc(O)cc(O)c4-c4cc3ccc4O)[C@H](O)c3ccc(c(Cl)c3)Oc3cc2cc(c3O)Oc2ccc(cc2Cl)C[C@H]2NC(=O)[C@H](Nc3c(NCc4ccc(-c5ccccc5)cc4)c(=O)c3=O)c3ccc(O)c(c3)Oc3cc(O)cc(c3)[C@@H]1NC2=O; 2
COC(=O)[C@H]1NC(=O)[C@H]2NC(=O)[C@H](NC(=O)[C@@H]3NC(=O)[C@H]4NC(=O)[C@@H](Cc5ccc(c(Cl)c5)Oc5cc3cc(c5O)Oc3ccc(cc3Cl)[C@H]2O)NC(=O)[C@H](Nc2c(NCc3ccc(-c5ccccc5)cc3)c(=O)c2=O)c2ccc(O)c(c2)Oc2cc(O)cc4c2)c2ccc(O)c(c2)-c2c(O)cc(O)cc21; 32
COC(=O)[C@H]1NC(=O)[C@H]2NC(=O)[C@H](NC(=O)[C@@H]3NC(=O)[C@H]4NC(=O)[C@@H](Cc5ccc(c(Cl)c5)Oc5cc3cc(c5O)Oc3ccc(cc3Cl)[C@H]2O[C@@H]2O[C@H](CO)[C@@H](O)[C@H](O)[C@H]2NC(C)=O)NC(=O)[C@H](N)c2ccc(O)c(c2)Oc2cc(O)cc4c2)c2ccc(O)c(c2)-c2c(O)cc(O)cc21; 0.5
COC(=O)[C@H]1NC(=O)[C@H]2NC(=O)[C@H](NC(=O)[C@@H]3NC(=O)[C@H]4NC(=O)[C@@H](Cc5ccc(c(Cl)c5)Oc5cc3cc(c5O)Oc3ccc(cc3Cl)[C@H]2O[C@@H]2O[C@H](CO)[C@@H](O)[C@H](O)[C@H]2NC(C)=O)NC(=O)[C@H](Nc2c(OC)c(=O)c2=O)c2ccc(O)c(c2)Oc2cc(O)cc4c2)c2ccc(O)c(c2)-c2c(O)cc(O)cc21; 8
